molecular target: 5-HT2AR (Homo sapiens, UniProt P28223); construct: host or cells: HEK293, transient; assay: Radioligand binding (competitive displacement and saturation), cell membranes; details: pKi 5-HT2AR, displacement of [^3H]ketanserin; mean of n independent experiments, ± SD where n ≥ 5
Sequence (P28223 whole entry): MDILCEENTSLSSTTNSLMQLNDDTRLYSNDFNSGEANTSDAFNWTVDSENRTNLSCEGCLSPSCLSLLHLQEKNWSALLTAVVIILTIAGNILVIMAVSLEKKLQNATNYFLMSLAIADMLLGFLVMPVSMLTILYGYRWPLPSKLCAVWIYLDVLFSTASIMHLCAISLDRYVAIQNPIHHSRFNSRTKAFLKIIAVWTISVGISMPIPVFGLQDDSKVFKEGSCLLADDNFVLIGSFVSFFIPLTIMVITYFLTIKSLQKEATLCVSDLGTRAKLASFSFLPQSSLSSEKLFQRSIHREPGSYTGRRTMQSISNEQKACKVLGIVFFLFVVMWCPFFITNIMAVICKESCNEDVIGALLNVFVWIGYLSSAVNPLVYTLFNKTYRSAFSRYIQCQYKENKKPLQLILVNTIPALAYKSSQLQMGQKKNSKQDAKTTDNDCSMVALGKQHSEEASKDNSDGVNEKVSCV
Observation type: pKi
Scale: pKi equals -log10([C]), with [C] in mol/L.

Consider the worked cases shown below.
CN(C)C1Cc2ccccc2C(c2cccc(-c3ccccc3F)c2)C1 (single isomer, unassigned) [(2S,4R)-2g] : 9.09
CN(C)[C@@H]1Cc2ccccc2[C@H](c2cccc(-c3ccccc3F)c2)C1 (single isomer, unassigned) [(2S,4S)-3g] : 7.39
CN(C)[C@@H]1Cc2ccccc2[C@H](c2cccc(-c3ccncc3)c2)C1 (single isomer, unassigned) : 7.36
CN(C)[C@@H]1Cc2ccccc2[C@H](c2cccc(-c3ccc(Cl)cc3)c2)C1 (single isomer, unassigned) [(2R,4R)-3j] : 8.77
CN(C)[C@@H]1Cc2ccccc2[C@@H](c2cccc(-c3ccc(Cl)cc3)c2)C1 : 9.54
CN(C)[C@@H]1Cc2ccccc2[C@H](c2cccc(-c3ccc(Cl)cc3)c2)C1 (single isomer, unassigned) [(2S,4S)-3j] : 7.20

Now examine the next entry.
Would you kindly share the measured pKi for CN(C)C1Cc2ccccc2C(c2cccc(-c3ccc(Cl)cc3)c2)C1 (stereo not shown) ? 8.27
